# TESTED_TARGET: T1, FZD9 CRD (Homo sapiens, UniProt O00144)
# T1 construct: G35-A161; GPI anchor signal (C); expressed in transfected cells; host or cells: CHO cells, lentiviral pLenti-puro
# T1 sequence (O00144 35-161): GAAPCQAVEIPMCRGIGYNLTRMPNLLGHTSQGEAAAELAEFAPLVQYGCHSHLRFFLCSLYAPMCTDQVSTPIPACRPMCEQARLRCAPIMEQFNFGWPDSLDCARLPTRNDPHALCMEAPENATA
# ASSAY_TEXT: Immunofluorescence of anti-FZD5 Fab binding to CHO cells overexpressing Frizzled CRD
# Parameters: key: −: no binding; +: very weak binder; ++: weak binder; +++: good binder; ++++: very good binder
# Protocol: Plasmids: pLCKO lentiviral vector used for knockout (TKO) library construction and expression of individual gRNAs was constructed as described previously (Hart et al., 2015). Briefly, single guide RNA (sgRNA) scaffold was amplified from px330 (Addgene 42230) and cloned into pLKO.TRC005 lentiviral vector (Broad Institute, Cambridge, Mass.) using AgeI/EcoRI restriction sites. BfuAI sites were added at the 5′ end of the sgRNA scaffold for cloning the TKO library or individual gRNA target sequences. […]
READOUT: Immunofluorescence binding, Frizzled CRD overexpressed on CHO cells: FZD9

MOLECULE: Fab-2920: anti-FZD5 Fab with antibody variable region Fv-2920; CDR SEQ ID NOs: 35, 36, 59, 98, 135, 170 (antibody, V domains shown) VH: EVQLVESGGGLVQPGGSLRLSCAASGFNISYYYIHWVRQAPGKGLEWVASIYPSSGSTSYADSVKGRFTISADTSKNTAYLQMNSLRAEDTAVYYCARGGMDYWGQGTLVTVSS VL: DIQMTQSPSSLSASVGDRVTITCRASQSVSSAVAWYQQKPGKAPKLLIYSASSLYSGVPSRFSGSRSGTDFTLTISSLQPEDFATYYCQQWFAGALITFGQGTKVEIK
RESULT: −

Value source: patent US20210253718A1
